system: MALME-3M melanoma; assay: NCI tumour cell line growth inhibition, 48 h
Consider the following compounds and their measured TGI readings.
readout-label: TGI

INSERT INTO assay_data (compound, tgt, reported_value) VALUES
  ('Cc1cccc2c(N)c3cccc(C(=O)NCCN4CCOCC4)c3nc12', 'MALME-3M melanoma', '1.31 µM'),
  ('O=C(Nn1c(-c2ccccc2)nc2ccccc2c1=O)c1ccc(O)cc1', 'MALME-3M melanoma', '> 100 µM'),
  ('CN1CC(S(=O)(=O)c2ccccc2)CC(S(=O)(=O)c2ccccc2)C1c1ccccc1 (stereo not given)', 'MALME-3M melanoma', '27.6 µM'),
  ('O=[N+]([O-])c1ccc(NN=C2c3ccccc3Cc3ccccc32)c([N+](=O)[O-])c1', 'MALME-3M melanoma', '> 100 µM'),
  ('CCC(C)C(NC(=O)c1c2ccccc2nc2ccccc12)C(=O)O (stereo not given)', 'MALME-3M melanoma', '> 100 µM');

---

tested on: RXF 393 renal; assay: NCI tumour cell line growth inhibition, 48 h
readout-label: TGI (µM)

INSERT INTO results (molecule, tgt, value_qualifier, reported_value) VALUES
  ('[O]=[W](=[O])([OH])[OH]', 'RXF 393 renal', '>', 100),
  ('C[N+]1(CCCC[N+]2(C)CCCCCCC2)CCCCCCC1', 'RXF 393 renal', '>', 100),
  ('O=C(Nc1ccc(O)c(NS(=O)(=O)c2ccc(F)cc2)c1)c1ccc(-c2ccccc2)cc1', 'RXF 393 renal', '=', 10.7),
  ('O=C(NCCCCCCNC(=O)NC1OCC(O)C(O)C1O)NC1OCC(O)C(O)C1O (stereo not given)', 'RXF 393 renal', '>', 100),
  ('O=C(OC(CNc1c(C(=O)c2ccccc2)c(=O)n(Cc2ccccc2)c(=O)n1Cc1ccccc1)CN1CCCCC1)c1ccccc1 (stereo not given)', 'RXF 393 renal', '=', 29.5),
  ('CS(=O)(=O)N(CC(=O)O)Cc1ccccc1', 'RXF 393 renal', '>', 100),
  ('CNc1ccc(C(=O)CC(O)CCC(C)C2OC(=O)CC(O)CC(=O)CC(O)CC(O)CC(O)CC(O)CC3(O)CC(O)C(C(=O)NCCc4ccccn4)C(CC(OC4OC(C)C(O)C(N)C4O)/C=C/C=C/C=C/C=C\C=C/C=C/C=C/C2C)O3)cc1 (stereo not given)', 'RXF 393 renal', '=', 30.4),
  ('Cc1ccc(S(=O)(=O)NC(=O)C#CCOC2CCCCO2)cc1 (stereo not given)', 'RXF 393 renal', '>', 100),
  ('O=C1c2cscc2C(=O)c2c(OCc3ccccc3)ccc(OCc3ccccc3)c21', 'RXF 393 renal', '>', 100),
  ('N#Cc1nc(NC(=O)c2ccccc2)sc1N', 'RXF 393 renal', '>', 10),
  ('CCOC(=O)c1nc2cc(C(F)(F)F)ccc2nc1Oc1ccc(C(=O)OC)cc1', 'RXF 393 renal', '>', 100),
  ('COCO[C@@H]1CC2C=Nc3cc(OCc4ccccc4)c(OC)cc3C(=O)N2C1 (stereo not given in full)', 'RXF 393 renal', '=', 0.972),
  ('N#C/C(=C\c1ccc([N+](=O)[O-])s1)c1nc2cc(Br)ccc2s1', 'RXF 393 renal', '=', 2.06),
  ('Cc1n(-c2ccccc2)c2c([n+]1Cc1ccc([N+](=O)[O-])cc1)C(=O)c1ccccc1C2=O', 'RXF 393 renal', '=', 21.5),
  ('Cc1cccc2c1NC(=O)C2(c1ccc(O)cc1)c1ccc(O)cc1', 'RXF 393 renal', '=', 0.709),
  ('COc1cc(/C=N/Nc2ncnc3c2cnn3Cc2ccccc2)ccc1O', 'RXF 393 renal', '=', 19.2),
  ('COC(=O)C(C(=O)C(=O)Nc1ccc([N+](=O)[O-])cc1)c1nc2cc(C)c(C)cc2[nH]c1=O (stereo not given)', 'RXF 393 renal', '>', 100),
  ('O=C(Nc1cccc(-n2cc(-c3ccncc3)c(-c3ccc(O)c(Cl)c3)n2)c1)c1ccc(N2CCOCC2)c(C(F)(F)F)c1', 'RXF 393 renal', '=', 2.25),
  ('Cc1ccc(Cc2nn(C)c(=O)n2-n2cccc2)cc1', 'RXF 393 renal', '>', 100),
  ('Nc1ccc(-c2nc3ccccc3s2)cc1F', 'RXF 393 renal', '>', 100);
